- Test system: HCV replicon D168V variant in Huh7 cells
- Assay Comment: microbe, parasite or virus in culture
- Type: cell-based, Hepatitis C virus
- Condition Summary: Hepatitis C virus, Huh-7, read-out: Replicon EC50 (nM) D168V, Table 4
Task for the reader: assign each of the following compounds its reported log10(EC50).
Recall that a logarithmic scale is used here: each number is log10 of EC50 in nM.

Specify measured log10(EC50) for COc1ccc2nc(C)c(O[C@@H]3C[C@H]4C(=O)N[C@]5(C(=O)NS(=O)(=O)C6CC6)C[C@H]5/C=C\CCCCC[C@H](NC(=O)OC(C)(C)C)C(=O)N4C3)nc2c1 [Compound 18b] . 0.50

Specify measured log10(EC50) for COc1ccc2nc(C(C)C)c(O[C@@H]3C[C@H]4C(=O)N[C@]5(C(=O)NS(=O)(=O)C6CC6)C[C@H]5/C=C\CCCCC[C@H](NC(=O)OC(C)(C)C)C(=O)N4C3)nc2c1 [Compound 18e] . 1.37

Specify measured log10(EC50) for COc1ccc2nc(Cl)c(O[C@@H]3C[C@H]4C(=O)N[C@]5(C(=O)NS(=O)(=O)C6CC6)C[C@H]5/C=C\CCCCC[C@H](NC(=O)OC5CCCC5)C(=O)N4C3)nc2c1 [Compound 22c] . 0.19

Specify measured log10(EC50) for COc1ccc2nc(C)c(O[C@@H]3C[C@H]4C(=O)N[C@]5(C(=O)NS(=O)(=O)C6CC6)C[C@H]5/C=C\CCCCC[C@H](NC(=O)OC5CCCC5)C(=O)N4C3)nc2c1 [Compound 22b] . 0.64

Specify measured log10(EC50) for COc1ccc2nc(C(F)(F)F)c(O[C@@H]3C[C@H]4C(=O)N[C@]5(C(=O)NS(=O)(=O)C6(C)CC6)C[C@H]5/C=C\CCCCC[C@H](NC(=O)OC5CCCC5)C(=O)N4C3)nc2c1 [Compound 23d] . 1.06
